Target: human c-Met on cells (MKN-45, A549, HPAF, BxPC3, NCI-H441) (human, UniProt P08581 25-1390)
Sequence (P08581 25-1390): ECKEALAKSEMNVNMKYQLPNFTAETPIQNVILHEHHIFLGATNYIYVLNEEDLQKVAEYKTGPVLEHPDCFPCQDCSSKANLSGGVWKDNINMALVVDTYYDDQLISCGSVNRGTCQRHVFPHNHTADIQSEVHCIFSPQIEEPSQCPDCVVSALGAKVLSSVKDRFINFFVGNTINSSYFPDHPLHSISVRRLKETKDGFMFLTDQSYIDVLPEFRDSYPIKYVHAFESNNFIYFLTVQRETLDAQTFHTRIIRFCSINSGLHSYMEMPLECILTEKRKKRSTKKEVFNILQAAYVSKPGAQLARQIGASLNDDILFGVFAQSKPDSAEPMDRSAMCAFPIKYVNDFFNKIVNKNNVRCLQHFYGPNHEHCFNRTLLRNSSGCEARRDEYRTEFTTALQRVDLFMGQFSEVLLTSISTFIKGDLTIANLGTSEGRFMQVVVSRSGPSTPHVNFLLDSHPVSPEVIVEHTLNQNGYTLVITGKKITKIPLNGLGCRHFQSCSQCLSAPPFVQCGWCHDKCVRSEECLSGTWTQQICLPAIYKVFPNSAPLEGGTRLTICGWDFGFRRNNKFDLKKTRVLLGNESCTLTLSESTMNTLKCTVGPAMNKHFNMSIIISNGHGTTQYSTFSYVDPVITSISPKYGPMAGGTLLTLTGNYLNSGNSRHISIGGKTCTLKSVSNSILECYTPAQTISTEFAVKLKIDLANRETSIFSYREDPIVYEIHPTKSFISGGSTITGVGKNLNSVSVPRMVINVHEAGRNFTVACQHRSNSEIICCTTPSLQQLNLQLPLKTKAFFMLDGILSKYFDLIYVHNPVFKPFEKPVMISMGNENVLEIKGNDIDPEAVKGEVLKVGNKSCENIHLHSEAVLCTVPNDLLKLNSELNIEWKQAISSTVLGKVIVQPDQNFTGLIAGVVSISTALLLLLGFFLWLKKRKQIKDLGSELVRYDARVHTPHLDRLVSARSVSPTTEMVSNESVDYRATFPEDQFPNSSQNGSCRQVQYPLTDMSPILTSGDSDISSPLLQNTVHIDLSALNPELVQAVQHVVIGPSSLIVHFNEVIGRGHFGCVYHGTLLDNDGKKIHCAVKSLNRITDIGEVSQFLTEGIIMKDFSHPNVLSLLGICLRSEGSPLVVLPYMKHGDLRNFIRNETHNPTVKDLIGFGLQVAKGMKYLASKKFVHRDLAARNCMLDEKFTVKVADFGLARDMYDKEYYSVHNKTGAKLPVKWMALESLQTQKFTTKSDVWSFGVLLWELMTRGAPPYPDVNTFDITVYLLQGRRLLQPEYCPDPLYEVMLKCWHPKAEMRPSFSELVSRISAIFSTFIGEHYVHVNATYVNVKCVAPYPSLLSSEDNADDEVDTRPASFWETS
Assay: cell-based or functional assay
quantity.measured: ADCC, specific lysis of MKN-45 cells, EC50 (ng/mL)
I only need the number, in ng/mL, no unit after it.

Ask: # input binder: 48A2 (antibody, V domains shown) VH: EVQLVQPGVELRNPGASVKVSCKASGYIFTMNSIDWVRQAPGQGLEWMGRIDPEDGGTKYAQKFQGRVTFTADTSTSTAYVELNSLRSEDTAVYYCARVDDYYLGYDYWGQGTQVTVSS VL: DIVMTQTPTSVTASAGDKVTINCKSSQSVLFSSNQKNYLAWYQQRLGQSPRLLIYWASIRESGVPDRFSGSGSATDFTLTISNFQPEDAAVYYCQQGYSFPYSFGSGTRLEIR ; wanted: its ADCC, specific lysis of MKN-45 cells, EC50
Reply: 4.3
